Data provenance: ChEMBL document CHEMBL5241096

experiment: Drug uptake in PSMA-11 expressing mouse relative to control; type: ADME; settings: in vivo, read-out: Drug uptake
Readout Label: tissue uptake (%ID/g)
Write down the numeric answer in %ID/g and omit the unit.

Any idea what its tissue uptake is? The compound is N=C1C=CC2=C(c3ccc(C(=O)NCCOCCOCCNC(=O)CCc4ccc(O)c(CN(CCN(CC(=O)O)Cc5cc(CCC(=O)NCCCC[C@H](NC(=O)N[C@@H](CCC(=O)O)C(=O)O)C(=O)O)ccc5O)CC(=O)O)c4)cc3C(=O)O)C3C=CC(N)C(S(=O)(=O)O)=C3OC2=C1S(=O)(=O)O (stereo partly specified)
4.8

###

experiment: Drug uptake in PSMA expressing mouse relative to control; assay type: ADME; settings: in vivo, read-out: Drug uptake
Readout Label: tissue uptake (%ID/g)
Write down the numeric answer in %ID/g and omit the unit.

Any idea what its tissue uptake is? The compound is CC1(C)C(/C=C/C2=C(Oc3ccc(S(=O)(=O)O)cc3)C(=C/C=C3/N(CCCS(=O)(=O)[O-])c4ccccc4C3(C)CCCC(=O)NCCOCCOCCNC(=O)CCc3ccc(O)c(CN(CCN(CC(=O)O)Cc4cc(CCC(=O)NCCCC[C@H](NC(=O)N[C@@H](CCC(=O)O)C(=O)O)C(=O)O)ccc4O)CC(=O)O)c3)/CCC2)=[N+](CCCS(=O)(=O)O)c2ccccc21 (stereo partly specified)
15.6

###

assay: Drug uptake in PSMA expressing mouse model measured after 1 hr relative to control; format: ADME; conditions: in vivo, read-out: Drug uptake
Listing: tissue uptake at 1 h of selected molecules
Write down the numeric answer in %ID/g and omit the unit.

| Molecule | Unit Descriptor | tissue uptake at 1 h |
| --- | --- | --- |
| CC(C)(C)[Si](F)(c1ccc(C(=O)NCC(NC(=O)CC(C(=O)O)N2CCN(CC(=O)O)CCN(CC(=O)O)CCN(CC(=O)O)CC2)C(=O)N[C@H](CCCCNC(=O)CCC(=O)NCCC[C@@H](NC(=O)CC[C@H](NC(=O)N[C@@H](CCC(=O)O)C(=O)O)C(=O)O)C(=O)O)C(=O)O)cc1)C(C)(C)C (mixture of isomers) | %ID/g | 1.2 |

Any idea what its tissue uptake at 1 h is? The molecule is CC(C)(C)[Si](F)(c1ccc(C(=O)NCC(C(=O)N[C@H](CCCCNC(=O)CCC(=O)NCCC[C@@H](NC(=O)CC[C@H](NC(=O)N[C@@H](CCC(=O)O)C(=O)O)C(=O)O)C(=O)O)C(=O)O)n2cc(CNC(=O)CCP(=O)(O)CN3CCN(CP(=O)(O)CCC(=O)O)CCN(CP(=O)(O)CCC(=O)O)CC3)nn2)cc1)C(C)(C)C (mixture of isomers)
5.31

Repeat for the following molecule: CC(C)(C)[Si](F)(c1ccc(C(=O)NC[C@@H](NC(=O)CC(C(=O)O)N2CCN(CC(=O)O)CCN(CC(=O)O)CCN(CC(=O)O)CC2)C(=O)N[C@H](CCCCNC(=O)CCC(=O)NCCC[C@@H](NC(=O)CC[C@H](NC(=O)N[C@@H](Cc2nnn[nH]2)C(=O)O)C(=O)O)C(=O)O)C(=O)O)cc1)C(C)(C)C (some centres undefined)
0.68

Repeat for the following molecule: CC(C)(C)[Si](F)(c1ccc(C(=O)NC[C@@H](NC(=O)CC(C(=O)O)N2CCN(CC(=O)O)CCN(CC(=O)O)CCN(CC(=O)O)CC2)C(=O)N[C@H](CCCCNC(=O)CCC(=O)NCCC[C@@H](NC(=O)CC[C@H](NC(=O)O[C@@H](CCC(=O)O)C(=O)O)C(=O)O)C(=O)O)C(=O)O)cc1)C(C)(C)C (some centres undefined)
3.4

###

assay: Drug uptake in tumor of athymic nude mouse xenografted with human LNCaP cells at 3 nmol, iv measured after hrs relative to control; assay type: ADME, organism-based, Neoplasm; settings: read-out: Drug uptake
Readout Label: tissue uptake at 1 h

Any idea what its tissue uptake at 1 h is? The compound is C[N+](C)(Cc1cn(CCCC[C@H](NC(=O)CN2CCN(CC(=O)O)CCN(CC(=O)O)CCN(CC(=O)O)CC2)C(=O)NC[C@H]2CC[C@H](C(=O)N[C@@H](Cc3ccc4ccccc4c3)C(=O)NCCCC[C@H](NC(=O)N[C@@H](CCC(=O)O)C(=O)O)C(=O)O)CC2)nn1)C[B-](F)(F)F
> 10 %ID/g

###

assay: Half life of the compound; assay type: physicochemical
Readout Label: half-life (h)
Write down the numeric answer in h and omit the unit.

Any idea what its half-life is? The compound is COc1cc2cc(c1Cl)N(C)C(=O)C[C@H](OC(=O)[C@H](C)N(C)C(=O)CCSSCCC(=O)N[C@@H](CCCCNC(=O)CCOCCOCCOCCOCCOCCC(=O)NCCCC[C@H](NC(=O)N[C@@H](CCC(=O)O)C(=O)O)C(=O)O)C(=O)NCCCOCCOCCOCCCNC(=O)CCC(C(=O)O)N1CCN(CC(=O)O)CCN(CC(=O)O)CC1)[C@]1(C)O[C@H]1[C@H](C)[C@@H]1C[C@@](O)(NC(=O)O1)[C@H](OC)/C=C/C=C(\C)C2 (stereo partly specified)
1.83

###

assay: Drug uptake in PSMA expressing mouse PC3-flu tumor xenografted model at measured after 1 hrs relative to control; type: ADME; settings: read-out: Drug uptake
Readout Label: tissue uptake at 1 h (%ID/g)
Write down the numeric answer in %ID/g and omit the unit.

Any idea what its tissue uptake at 1 h is? The molecule is COc1cc2cc(c1Cl)N(C)C(=O)C[C@H](OC(=O)[C@H](C)N(C)C(=O)CCSSCCC(=O)N[C@@H](CCCCNC(=O)CCOCCOCCOCCOCCOCCC(=O)NCCCC[C@H](NC(=O)N[C@@H](CCC(=O)O)C(=O)O)C(=O)O)C(=O)NCCCOCCOCCOCCCNC(=O)CCC(C(=O)O)N1CCN(CC(=O)O)CCN(CC(=O)O)CC1)[C@]1(C)O[C@H]1[C@H](C)[C@@H]1C[C@@](O)(NC(=O)O1)[C@H](OC)/C=C/C=C(\C)C2 (stereo partly specified)
1.12

###

assay: Lipophilicity, log D of the compound; assay type: physicochemical; details: octanol/water
Readout Label: logD
Would you mind answering with just the numeric figure?

Any idea what its logD is? The compound is O=C(O)CC[C@H](NC(=O)N[C@@H](CCCCNC(=O)CCc1ccc(O)c(CN(CCN(CC(=O)O)Cc2cc(CCC(=O)NCCOCCOCCNC(=S)Nc3cccc4c3C(=O)OC43c4ccc(O)cc4Oc4cc(O)ccc43)ccc2O)CC(=O)O)c1)C(=O)O)C(=O)O
2.01

###

assay: Stability in mouse plasma measured after 60 mins; type: ADME, cell-free; details: read-out: Stability
Readout Label: remaining at 1 h (%)
Write down the numeric answer in % and omit the unit.

Any idea what its remaining at 1 h is? The compound is CC1(C)C(/C=C/C=C/C=C2/N(CCCCCC(=O)NCCCC[C@H](NC(=O)N[C@@H](CCC(=O)O)C(=O)O)C(=O)O)c3ccccc3C2(C)C)=[N+](CCCCCNC(=O)CCCCCNC(=O)[C@@H](CO)NC(=O)[C@@H](CO)NC(=O)[C@@H](CO)NC(=O)CS)c2ccccc21
85

###

Listing: tissue uptake at 1 h of selected compounds
assay: Drug uptake in BALB/c mouse kidney at 60 mg/kg measured after 1 hr relative to control; format: ADME, organism-based; conditions: read-out: Drug uptake
Write down the numeric answer in %ID/g and omit the unit.

Below are worked cases with known answers.
| Compound | Measurement |
| --- | --- |
| N=C1C=CC2=C(c3ccc(C(=O)NCCOCCOCCNC(=O)CCc4ccc(O)c(CN(CCN(CC(=O)O)Cc5cc(CCC(=O)NCCCC[C@H](NC(=O)N[C@@H](CCC(=O)O)C(=O)O)C(=O)O)ccc5O)CC(=O)O)c4)cc3C(=O)O)C3C=CC(N)C(S(=O)(=O)O)=C3OC2=C1S(=O)(=O)O (stereo partly drawn) | 125 |
| CC1(C)C(/C=C/C2=C(Oc3ccc(S(=O)(=O)O)cc3)C(=C/C=C3/N(CCCS(=O)(=O)[O-])c4ccccc4C3(C)CCCC(=O)NCCOCCOCCNC(=O)CCc3ccc(O)c(CN(CCN(CC(=O)O)Cc4cc(CCC(=O)NCCCC[C@H](NC(=O)N[C@@H](CCC(=O)O)C(=O)O)C(=O)O)ccc4O)CC(=O)O)c3)/CCC2)=[N+](CCCS(=O)(=O)O)c2ccccc21 (stereo partly drawn) | 221 |

Next compound, tissue uptake at 1 h to be filled in.
Any idea what its tissue uptake at 1 h is? The compound is O=C(O)CC[C@H](NC(=O)N[C@@H](CCCCNC(=O)CCc1ccc(O)c(CN(CCN(CC(=O)O)Cc2cc(CCC(=O)NCCOCCOCCNC(=S)Nc3cccc4c3C(=O)OC43c4ccc(O)cc4Oc4cc(O)ccc43)ccc2O)CC(=O)O)c1)C(=O)O)C(=O)O
138
